Target: carboxypeptidase A (Bos taurus, UniProt P00730)
Construct: purchased Sigma, UK type I (catalogue number not given); host or cells: bovine pancreas
Sequence (P00730 111-419): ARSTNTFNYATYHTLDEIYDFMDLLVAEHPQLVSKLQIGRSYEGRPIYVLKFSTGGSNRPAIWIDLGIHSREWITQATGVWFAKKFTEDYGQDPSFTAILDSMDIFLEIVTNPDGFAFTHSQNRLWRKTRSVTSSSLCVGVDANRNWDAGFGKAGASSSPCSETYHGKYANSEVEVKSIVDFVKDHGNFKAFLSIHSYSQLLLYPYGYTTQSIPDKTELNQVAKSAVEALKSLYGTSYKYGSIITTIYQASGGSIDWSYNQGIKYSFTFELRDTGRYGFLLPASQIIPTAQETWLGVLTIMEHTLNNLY
Assay: Hydrolysis kinetics in carboxypeptidase A solution
Format: in vitro ADME, bovine
Conditions: 50 mM phosphate buffer pH 7.4, 37° C., carboxypeptidase A 1 U/ml
Where no end group is shown, it is not given here.
# MET = pseudo first-order rate constant for the degradation below 0.0006 min⁻¹ (exclusive); NOT MET = pseudo first-order rate constant for the degradation at/above 0.0006 min⁻¹

Item YGGFLKKKKKKKKKK [Leu-Enkephalin-(Lys)10-OH, H-Tyr-Gly-Gly-Phe-Leu-Lys10-OH] : pseudo first-order rate constant for the degradation beneath 0.0006 min⁻¹, strictly? MET

Item YGGFLKKKKKK [Leu-Enkephalin-(Lys)6-OH, H-Tyr-Gly-Gly-Phe-Leu-Lys6-OH] : pseudo first-order rate constant for the degradation beneath 0.0006 min⁻¹, strictly? NOT MET

Item H-RPKPQQFFGLMKKKKKK-NH2 [Substance P-(Lys)6-NH2] : pseudo first-order rate constant for the degradation beneath 0.0006 min⁻¹, strictly? NOT MET

Item H-YGGFLKEEEKK-OH [Leu-Enkephalin-Lys-(Glu)3-(Lys)2-OH] : pseudo first-order rate constant for the degradation beneath 0.0006 min⁻¹, strictly? NOT MET

----------
Provide the recorded pseudo first-order rate constant for the degradation for the entries that follow.
Biological target: leucine aminopeptidase (Sus scrofa, UniProt P28839)
Construct: purchased Sigma, UK type III-CP (catalogue number not given); host or cells: porcine kidney
Sequence (P28839 1-519): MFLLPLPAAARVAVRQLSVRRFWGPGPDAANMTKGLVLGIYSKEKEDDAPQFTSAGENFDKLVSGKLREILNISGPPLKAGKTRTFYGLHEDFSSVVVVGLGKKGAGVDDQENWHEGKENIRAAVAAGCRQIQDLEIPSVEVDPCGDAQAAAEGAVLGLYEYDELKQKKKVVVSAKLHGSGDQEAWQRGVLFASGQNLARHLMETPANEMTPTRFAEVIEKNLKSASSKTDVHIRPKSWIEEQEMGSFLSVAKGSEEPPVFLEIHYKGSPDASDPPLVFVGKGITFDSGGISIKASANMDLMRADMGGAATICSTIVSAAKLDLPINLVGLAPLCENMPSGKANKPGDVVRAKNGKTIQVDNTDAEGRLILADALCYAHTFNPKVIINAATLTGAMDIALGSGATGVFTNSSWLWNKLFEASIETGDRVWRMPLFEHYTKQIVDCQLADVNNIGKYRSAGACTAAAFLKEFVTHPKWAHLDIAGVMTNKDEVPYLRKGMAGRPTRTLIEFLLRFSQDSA
Test: Hydrolysis kinetics in leucine aminopeptidase solution
Assay type: in vitro ADME, porcine
Conditions: 50 mM phosphate buffer pH 7.4, 37° C., leucine aminopeptidase 25 U/ml
Where no end group is shown, it is not given here.

Param readout = pseudo first-order rate constant for the degradation; param system = leucine aminopeptidase (Sus scrofa, UniProt P28839); param query = H-RPKPQQFFGLMKKKKKK-NH2 [Substance P-(Lys)6-NH2] ; response: value 0.011 min⁻¹

Param readout = pseudo first-order rate constant for the degradation; param system = leucine aminopeptidase (Sus scrofa, UniProt P28839); param query = H-YGGFLKEEEEK-OH [Leu-Enkephalin-(Lys-Glu4-Lys)-OH] ; response: value 0.065 min⁻¹

Param readout = pseudo first-order rate constant for the degradation; param system = leucine aminopeptidase (Sus scrofa, UniProt P28839); param query = H-YGGFLKEEEKK-OH [Leu-Enkephalin-Lys-(Glu)3-(Lys)2-OH] ; response: value 0.12 min⁻¹

Param readout = pseudo first-order rate constant for the degradation; param system = leucine aminopeptidase (Sus scrofa, UniProt P28839); param query = H-KKKKKKRPKPQQFFGLM-NH2 [(Lys)6-Substance P-NH2] ; response: value 0.002 min⁻¹

Param readout = pseudo first-order rate constant for the degradation; param system = leucine aminopeptidase (Sus scrofa, UniProt P28839); param query = H-KKKKKKYGGFL-OH [(Lys)6-Leu-Enkephalin-OH, H-Lys6 Tyr-Gly-Gly-Phe-Leu-OH] ; response: value 0.026 min⁻¹

Param readout = pseudo first-order rate constant for the degradation; param system = leucine aminopeptidase (Sus scrofa, UniProt P28839); param query = YGGFLKKKKKK [Leu-Enkephalin-(Lys)6-OH, H-Tyr-Gly-Gly-Phe-Leu-Lys6-OH] ; response: value 0.0097 min⁻¹

Each recorded value in this set is attributed to patent US7414107B2.
